Tested on: TK-10 renal
Experiment: NCI tumour cell line growth inhibition, 48 h

Molecule	TGI
CCN(CC)CCCCCCNc1cc(OC)cc2cccnc12	30.8 µM
c1ccc(CCc2cccnc2)nc1	> 100 µM
CC1(C)OC(=S)N(c2ccccc2)C12C=Cc1ccccc1O2 (stereo unspecified)	> 100 µM
COc1cc(O)c2c(=O)c(O)c(-c3ccc(O)c(OC)c3)oc2c1	> 100 µM
N#Cc1nc(-c2ccco2)oc1N	> 10 µM
Cn1cc(C2=C(c3cccc(OC[C@@H](O)CO)c3)C(=O)NC2=O)c2ccccc21	> 25 µM
CC(C)=CC(=O)N(C)C1C2CN3CCC(O2)C13 (stereo unspecified)	> 100 µM
C/C(=C\c1cnc(C)s1)[C@@H]1C[C@@H]2O[C@@H]2CCC[C@H](C)[C@H](O)[C@@H](C)C(=O)C(C)(C)[C@@H](O)CC(=O)O1	> 100 µM
COC(=O)c1ccc(S)c(S(=O)(=O)Nc2n[nH]c(N)n2)c1	> 100 µM
Cc1ccc(C)c(N2C(=O)C(=O)C(c3nc4ccccc4s3)/C(=N/NC(=O)NN)C2=O)c1 (stereo unspecified)	> 100 µM
[N-]=[N+]=NI1OC(=O)c2ccccc21	> 100 µM
CN(CCNCc1ccccn1)CCNCc1ccccn1	6.94 µM
Oc1[nH]c2ccccc2c1N=NC(=S)Nc1ccccc1Cl	10.3 µM
COC(=O)c1ccc2c(c1)S/C(=C/c1ccc3ccc4cccc5ccc1c3c45)S2	> 100 µM
N#CCN1CCn2c1nsc2=S	> 100 µM
O=CNCNCCO	> 100 µM
COC(=O)c1c(C)n([O-])c2cc(Cl)c(Cl)cc2[n+]1=O	61.5 µM
CC(=O)C1=CN=C2C(=O)N(c3ccccc3)N(C)C12C (stereo unspecified)	> 100 µM
CC1OC(OC2C(O)CC(OC3C(O)CC(OC4CCC5(C)C(CCC6C5CC(O)C5(C)C(C7=CC(=O)OC7)CCC65O)C4)OC3C)OC2C)CC(O)C1O (stereo unspecified)	0.087 µM
Cc1ccc(NC(=O)CC2C(=O)Nc3ccccc3S2(=O)=O)c(C)c1 (stereo unspecified)	55 µM
CC(N)Cc1ccc(Cl)c(Cl)c1 (stereo unspecified)	> 83 µM
CC12C=CC(=O)C=C1CCC1C3CCC(O)(C(=O)CO)C3(C)CC(O)C12F (stereo unspecified)	> 100 µM
CCOC(=O)/C=C/CCO[Si](C)(C)C(C)(C)C	> 100 µM
COc1cc2c(cc1OC)-c1ncc3c(OC)c(OC)c(OC)cc3c1C2	50.4 µM
CC1=C(CC(=O)c2cccc([N+](=O)[O-])c2)C(=O)c2ccccc2C1=O	85.8 µM
O=C(CC1(O)C(=O)N(Cc2ccccc2)c2ccccc21)c1ccc(C(=O)NCC2CCC3(CC2)OOC2(CCCCC2)OO3)cc1 (stereo unspecified)	2.24 µM
O=[N+]([O-])c1ccc(OC2CC3C4C=CC3C2C4)c([N+](=O)[O-])c1 (stereo unspecified)	> 100 µM
CCOC(=O)C1(F)S(=O)(=O)OCCOS1(=O)=O	> 100 µM
O=c1[nH]cc(F)c(=O)n1C1OC(CO)C(O)C1O (stereo unspecified)	> 100 µM
NNC(=O)c1c(-c2cccnc2)cnc2ccccc12	> 100 µM
NC(=O)c1csc(C2OC(COP(=O)(O)CP(=O)(O)OCC3OC(n4cnc5c(N)ncnc54)C(O)C3O)C(O)C2O)n1 (stereo unspecified)	> 100 µM
CCCCCCCCCCCCC(Br)C(=O)NCC(N)=O (stereo unspecified)	34.7 µM
Cc1ccc2nc(N/N=C/c3sccc3C)cc(C)c2c1	> 100 µM
C/C=C/C#CC#C/C=C/C=C/C(O)CCO (stereo unspecified)	> 23.1 µM
Nc1nc(O)c2ncn([C@H]3CC[C@@H](CO)O3)c2n1	> 100 µM
O=C(/C=C/c1ccccc1)Oc1ccc(C(=O)/C=C/c2ccc(Cl)cc2)cc1	> 100 µM
Cc1ccc(NC(=O)c2cc(S(=O)(=O)Nc3n[nH]c(=O)[nH]3)c(SSc3cc(Cl)c(C(=O)Nc4ccc(C)cc4)cc3S(=O)(=O)Nc3n[nH]c(=O)[nH]3)cc2Cl)cc1	> 100 µM
N#CC(C#N)c1ccc(C(=O)N2CCC[C@H]2CO)cc1	> 100 µM
CC(C)(O)CNc1nc(Nc2ccnc(C(F)(F)F)c2)nc(-c2cccc(C(F)(F)F)n2)n1	82.4 µM
COc1ccc(/C(Br)=C2\OC(=O)c3ccccc32)cc1	> 10 µM
COCOCC/C=C/C=O	> 100 µM
C[N+](C)(C)c1ncnc2c1ncn2C1CC(O)C(CO)O1 (stereo unspecified)	> 100 µM
NC(=O)NNC(=O)NC12CC3CC(CC(C3)C1)C2	> 100 µM
N[C@H](C(=O)O)[C@@H]1CC(Br)=NO1	> 100 µM
c1cc2nnc1SCCCSc1ccc(nn1)SCCCS2	98.8 µM
C=C1CCC2[C@@H](CCC3[C@]2(C)CCC[C@]3(C)C(=O)OC)C1CC=O (stereo partly specified)	26.6 µM
